System: HepG2
conditions used: human, hepg2 cells, 48 h
value type: Log AC50 (M)

INSERT INTO measurements (record_smiles, system, measurement) VALUES
  ('CCN1CCN(Cc2ccc(NC(=O)c3ccc(C)c(NC(=O)c4cnc5cc(C(F)(F)F)ccc5c4O)c3)cc2C(F)(F)F)CC1', 'HepG2', -4.4643),
  ('Cc1nc(-c2ccccc2)cc([C@H]2CN3CC[C@H]2C[C@@H]3CN(Cc2ccco2)Cc2ccco2)n1', 'HepG2', -4.5143),
  ('CC(C)C[C@@H]1N[C@H](C(=O)NC(C)C)Cc2cn(Cc3ccncc3)c3cccc1c23', 'HepG2', -4.3528),
  ('O=C(C[C@@H]1CCNC[C@@H]1Cc1cc(CC2CCCCC2)on1)NCc1ccccc1', 'HepG2', -4.3028),
  ('Cc1cccc(Cn2nnc3c2C(=O)c2ccccc2C3=O)c1', 'HepG2', -4.3643),
  ('Fc1ccc(CN2CC[C@H](c3nc4ccc(C(F)(F)F)cc4[nH]3)C2)cc1F', 'HepG2', -4.3028),
  ('COc1cc2c(cc1OCc1ccccc1)N(C(=O)c1cc3ccccc3n1C)CC21CCN(C)CC1', 'HepG2', -4.3643);

---

system: Firefly luciferase (Fluc, EC 1.13.12.7) (Photinus pyralis, UniProt P08659)
Sequence (P08659 whole entry): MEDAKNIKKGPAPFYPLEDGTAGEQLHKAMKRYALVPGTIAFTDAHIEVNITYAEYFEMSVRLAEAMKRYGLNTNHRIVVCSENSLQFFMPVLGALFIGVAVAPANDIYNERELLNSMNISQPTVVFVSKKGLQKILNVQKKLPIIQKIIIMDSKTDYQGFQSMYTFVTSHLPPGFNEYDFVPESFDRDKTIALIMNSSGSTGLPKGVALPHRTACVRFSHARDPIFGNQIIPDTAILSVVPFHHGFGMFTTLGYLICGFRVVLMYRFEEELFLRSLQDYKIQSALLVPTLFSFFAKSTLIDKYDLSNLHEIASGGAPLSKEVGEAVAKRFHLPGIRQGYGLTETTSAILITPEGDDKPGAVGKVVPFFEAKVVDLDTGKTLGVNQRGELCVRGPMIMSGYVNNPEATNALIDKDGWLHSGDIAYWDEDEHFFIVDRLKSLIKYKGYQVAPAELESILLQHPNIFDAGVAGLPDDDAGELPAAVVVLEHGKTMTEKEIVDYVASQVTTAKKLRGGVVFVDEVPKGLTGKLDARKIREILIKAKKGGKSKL
assay remarks: biochemical
Set-up: single determination (the paper says generally: 'qHTS assays were performed in a single replicate with a 7- to 11-point dose response format'; it is not stated for this counterscreen itself)
AC50 listing for selected compounds.
value type: AC50 (µM)

INSERT INTO results (record_smiles, value_type, unit_annotation, measurement) VALUES
  ('Cc1ccc(C)c(/N=N/c2nc3ccccc3n2C)c1', 'AC50', 'µM', 12.1),
  ('Cn1c(/N=N/c2ccccc2)nc2ccccc21', 'AC50', 'µM', 6.81),
  ('Cc1ccc(C(=O)Nc2sc3c(c2C(=O)O)CCCCC3)o1', 'AC50', 'µM', 10.8),
  ('COc1cc(SC)ccc1C(=O)Nc1nc2ccccc2[nH]1', 'AC50', 'µM', 0.0171),
  ('Cc1ccc2[nH]c(-c3sc4nc(C)ccc4c3N)nc2c1', 'AC50', 'µM', 12.1);

---

assay remarks: in vitro
conditions used: human, hepg2-a16-cd81egfp cells, % viability
viability at 3 µM listing for selected compounds.
value type: viability at 3 µM (%)

INSERT INTO results (compound, measurement) VALUES
  ('Cc1cc(Nc2ccc(Cl)cc2)nc(NCc2ccccc2)n1 [MLS000591025]', 87.8),
  ('CCOC(=O)C1CCN(C(=O)c2cc(C(C)(C)C)nn2Cc2ccccc2)CC1 [MLS000860456]', 90.8),
  ('O=C(Nc1nc(-c2ccccn2)cs1)c1cccc(S(=O)(=O)N2CCOCC2)c1 [MLS002161290]', 62.2),
  ('CCOC(=O)c1nc2cc3n(c(CC(C)C)c-2c1C)CC(C)=C3C [MLS000594428]', 105),
  ('O=C(CSc1nc(Nc2ccccc2)nc(N2CCOCC2)n1)Nc1cc(Cl)ccc1O [MLS001035450]', 85.3),
  ('CCOc1ccc2c(c1)OC(c1ccc(C)cc1)(C(F)(F)F)NC2=O (stereo not drawn) [MLS000392832]', 63.5),
  ('N=c1c2c(n(Cc3ccc(F)cc3)c3c1CCC3)CCC2 [MLS000107591]', 77.7),
  ('O=C(Nc1ccc2c(N3CCOCC3)ncnc2c1)c1cccc(Br)c1 [NCGC00425561]', 49.3),
  ('C/C(=N\Nc1nc(-c2ccccc2O)nc2ccccc12)c1ccccc1 [MLS000714167]', 93.6),
  ('Cc1noc(C)c1CSc1nc2sc3c(c2c(=O)n1C)CCCC3 [MLS000564913]', 89.9),
  ('COc1ccc(C2c3[nH]c4ccccc4c3C[C@H]3C(=O)N(C4CCN(Cc5ccccc5)CC4)CC(=O)N23)cc1OC (stereo partly drawn) [MLS001215281]', 90.3),
  ('Cc1cc(C)[n+](C)n1CC(O)Cn1c2ccccc2c2ccccc21 (stereo not drawn) [MLS000711524]', 104),
  ('COc1ccc(NC(=O)C(c2ccc(Cl)cc2)C(C)C)cn1 (stereo not drawn) [MLS001149289]', 88.5),
  ('CC1CCN(S(=O)(=O)c2ccc3c(c2)C(=NO)c2cc(S(=O)(=O)N4CCC(C)CC4)ccc2-3)CC1 [MLS000551434]', 6.86),
  ('COc1cc(C2NCc3ccccc3-n3cccc32)ccc1O (stereo not drawn) [MLS000047988]', 102),
  ('CCCC(=O)NC(c1ccccc1OC)c1ccc2cccnc2c1O (stereo not drawn) [MLS000715345]', 55.4),
  ('CC(C(=O)N1CCCC1)N1CCN(S(=O)(=O)c2ccc(C(C)(C)C)cc2)CC1 (stereo not drawn) [MLS002156464]', 92.8),
  ('N#Cc1ccc(NC(=O)Nc2ccc(Cl)cc2)cc1 [MLS000104525]', 77.8);
